All values here come from PubChem BioAssay.

ASSAY_REMARKS: compound effects on lung adenocarcinoma cell viability – A549, calcein-AM fluorescence, 48 h, basal, profiling panel (AID 1162); also: test concentration not given here
CONDITION: higher = more signal
Field: class. Source value: z-score. Ranges: low band = under -0.5, middle band = from -0.5 up to 0.3, high band = 0.3 and over

>>> answer_label("CCCCC(O)C1C=CC2C(=O)N(c3ccccc3)C(=O)C2N1Nc1ccc([N+](=O)[O-])cc1 (stereo not given)")
"middle band"
>>> answer_label("CCOC(=O)C[C@H]1[C@H](OC(=O)Cc2ccc3c(c2)OCO3)[C@@H](NC(=O)Cc2ccc(OC)cc2)c2cc(OCCCO)ccc2N1C(=O)Cc1ccc(OC)cc1")
"high band"
>>> answer_label("COC(=O)[C@@]1(Cc2ccc(OC)cc2)[C@H]2c3cc(C(=O)N4CCCC4)n(Cc4ccc(C(F)(F)F)nc4)c3C[C@H]2CN1C(=O)c1ccccc1")
"low band"
>>> answer_label("CC1CC/C=C\\[C@H]2OC34C=CCN(Cn5nnc6ccccc65)C(=O)[C@H]3N(CCCCCCO)C(=O)[C@@H]4C2C(=O)O1 (stereo not given in full)")
"middle band"
>>> answer_label("CC(C)=C1C(=O)C(c2ccccc2)=C2CN3C(=O)N(CCc4ccccc4)C(=O)[C@]3(C)[C@H]21")
"high band"
>>> answer_label("NC(=O)NCC#Cc1ccc2c(c1)[C@]1(C(=O)N2)[C@H](c2ccc(OCCO)cc2)N2[C@H](c3ccccc3)[C@H](c3ccccc3)OC(=O)[C@H]2[C@@H]1C(=O)NC[C@H](O)c1ccccc1")
"middle band"
>>> answer_label("COc1ccc([Si](C)(C)[C@@H]2[C@@H](CC(=O)N(CCO)Cc3ccccc3)O[C@]3(C(=O)N(Cc4ccc(I)cc4)c4ccccc43)[C@H]2C)cc1")
"low band"
>>> answer_label("COCCCNC(=O)[C@@]1(Sc2ccc(C)cc2)CC(=O)N(Cc2ccccc2C(F)(F)F)[C@@H]1c1ccc(CO)cc1I")
"middle band"
>>> answer_label("O=C1O[C@@H](c2ccccc2)[C@@H](c2ccccc2)N2[C@@H](c3ccc(OCCO)cc3)[C@]3(C(=O)Nc4ccc(C#CC5(O)CCCCCC5)cc43)[C@@H](C(=O)O)[C@H]12")
"high band"
>>> answer_label("Cc1ccc(C(C)CC(O)C2C=CC3C(=O)N(C)C(=O)C3N2Nc2ccccc2)o1 (stereo not given)")
"middle band"
>>> answer_label("CN1C(=O)C2C(C1=O)C1C=C(CCCO)C2C(C2CC2)N1Cc1cccc(OC(F)(F)F)c1 (stereo not given)")
"middle band"
>>> answer_label("CC(C)N1C(=O)c2ccccc2[C@@H](C(=O)NCC(F)(F)F)[C@@H]1c1ccc(CO)cc1")
"high band"
>>> answer_label("C=CC1c2cc(O)c(OC)cc2CCN1C (stereo not given)")
"low band"
>>> answer_label("CCCN1C(=O)[C@]2(CCC(=O)OC(C)(C)C)N=C(c3ccc(OCCCO)cc3)O[C@@H]2c2ccccc21")
"low band"
>>> answer_label("COc1ccc([Si](C)(C)[C@@H]2[C@@H](CC(=O)N3CCC[C@H]3CO)O[C@]3(C(=O)N(Cc4ccc(N5CCOC5=O)cc4)c4ccccc43)[C@H]2C)cc1")
"low band"
